Numbers sourced from patent US20220241316A1.

Test system: senescent cells
Assay: Evaluation of senolytic effects of 25HC, oxysterols and 25HC analogs in cell culture
Format: cell-based
Conditions: cell type not stated
measurement type: Senolytic effect

Req: Name the reported Senolytic effect value associated with the compound `CC(=O)CCC[C@@H](C)[C@H]1CC[C@H]2[C@@H]3CC=C4C[C@@H](O)CC[C@]4(C)[C@H]3CC[C@]12C`
Resp: novel senolytics

Req: Given the entry C=C1CC[C@@H](O)CC1=C/C=C1\CCC[C@]2(C)[C@@H]([C@H](C)CCCC(C)(C)O)CC[C@@H]12 [Calcifediol 25-Hydroxyvitamin D3, reference compound] , report its measured Senolytic effect.
Resp: novel senolytics

Req: Can you look up the measured Senolytic effect of C[C@@H](CCCC(C)(O)c1ccccc1)C1CCC2C3CC=C4C[C@H](O)CC[C@@]4(C)C3CC[C@]21C (relative stereo) for me?
Resp: novel senolytics
